Test system: Staphylococcus aureus
Protocol Details: Antimicrobial activity against Staphylococcus aureus by liquid microdilution assay
Format: functional
Reported Property: MIC (µg/mL)

- CC1(O)C=Cc2c(c(O)cc3cc(-c4cc(O)cc(O)c4)oc23)OC1 (centres undefined): 156
- CC(C)=CCc1c(O)cc(-c2cc3ccc(O)cc3o2)cc1O: 78
- COc1c(O)cc2oc(-c3cc(O)cc(O)c3)cc2c1CC=C(C)C: 10
- CC(C)(O)C(O)Cc1cc2cc(-c3cc(O)cc(O)c3)oc2cc1O (centres undefined): 312

* * *

System: Microsporum audouinii
Protocol Details: Antimicrobial activity against Microsporum audouinii by liquid microdilution assay
Type: functional
Reported Property: MIC (µg/mL)

* CC1(O)C=Cc2c(c(O)cc3cc(-c4cc(O)cc(O)c4)oc23)OC1 (stereo not given) | 78
* COc1c(O)cc2oc(-c3cc(O)cc(O)c3)cc2c1CC=C(C)C | 39
* CC(C)(O)C(O)Cc1cc2cc(-c3cc(O)cc(O)c3)oc2cc1O (stereo not given) | 312
* CC(C)=CCc1c(O)cc(-c2cc3ccc(O)cc3o2)cc1O | 78
* Oc1cc(O)cc(-c2cc3ccc(O)cc3o2)c1 | 78

* * *

Protocol Details: Antifungal activity against Diaporthe nomurai
Format: functional
Reported Property: log10 of MIC (log10 of the value in µg/mL)

* COc1cc2cc(-c3cc(O)cc(O)c3)oc2cc1OC | 3.00
* CC1(C)C=Cc2c(O)cc(-c3cc4ccc(O)cc4o3)cc2O1 | 0.85
* CC1(C)C=Cc2c(cc(O)cc2-c2cc3ccc(O)cc3o2)O1 | 1.18
* CC(C)=CCc1c(O)cc(-c2cc3ccc(O)cc3o2)cc1O | 1.15
* COc1cc2c(c3oc(-c4cc(O)cc(O)c4)cc13)CC=C(C)CO2 | 1.70
* CC1=CCc2c(ccc3cc(-c4cc(O)cc(O)c4)oc23)OC1 | 1.70

* * *

Protocol Details: Antifungal activity against Cochliobolus miyabeanus
Assay type: functional
Reported Conditions: Bipolaris oryzae
In this section, each of the compounds is paired with its reported MIC.
Reported Property: MIC (µg/mL)

• COc1cc2c(c3oc(-c4cc(O)cc(O)c4)cc13)CC=C(C)CO2 = 50
• CC(C)=CCc1c(O)cc(-c2cc3ccc(O)cc3o2)cc1O = 28
• CC1(C)C=Cc2c(cc(O)cc2-c2cc3ccc(O)cc3o2)O1 = 100
• CC1=CCc2c(ccc3cc(-c4cc(O)cc(O)c4)oc23)OC1 = 50
• COc1cc2cc(-c3cc(O)cc(O)c3)oc2cc1OC = 100
• CC1(C)C=Cc2c(O)cc(-c3cc4ccc(O)cc4o3)cc2O1 = 14

* * *

System: Shigella dysenteriae
Protocol Details: Microbicidal activity against Shigella dysenteriae by liquid microdilution assay
Assay type: functional
Reported Property: MBC (µg/mL)

- Oc1cc(O)cc(-c2cc3ccc(O)cc3o2)c1: 156
- CC(C)(O)C(O)Cc1cc2cc(-c3cc(O)cc(O)c3)oc2cc1O (stereo not given): 312
- CC(C)=CCc1c(O)cc(-c2cc3ccc(O)cc3o2)cc1O: 39
- CC1(O)C=Cc2c(c(O)cc3cc(-c4cc(O)cc(O)c4)oc23)OC1 (stereo not given): 156
- COc1c(O)cc2oc(-c3cc(O)cc(O)c3)cc2c1CC=C(C)C: 10

* * *

Protocol Details: Antioxidant activity assessed as DPPH radical scavenging activity measured as discoloration at 25 ug/ml
Format: physicochemical
Reported Property: Activity

- COc1c(O)cc2oc(-c3cc(O)cc(O)c3)cc2c1CC=C(C)C: 65.63%
- CC1(O)C=Cc2c(c(O)cc3cc(-c4cc(O)cc(O)c4)oc23)OC1 (centres undefined): 42.09%
- CC(C)(O)C(O)Cc1cc2cc(-c3cc(O)cc(O)c3)oc2cc1O (centres undefined): 38.2%
- CC(C)=CCc1c(O)ccc2cc(-c3cc(O)cc(O)c3)oc12: 62.25%

* * *

Protocol Details: Antifungal activity against Fusarium solani f. sp. mori
Type: functional
Simple rule here: MIC less than 500 µg/mL is yes (1), otherwise no (0).

- CC1(C)C=Cc2c(cc(O)cc2-c2cc3ccc(O)cc3o2)O1: yes (1)
- CC(C)=CCc1c(O)cc(-c2cc3ccc(O)cc3o2)cc1O: yes (1)
- COc1cc2cc(-c3cc(O)cc(O)c3)oc2cc1OC: no (0)
- CC1(C)C=Cc2c(O)cc(-c3cc4ccc(O)cc4o3)cc2O1: yes (1)
- COc1cc2c(c3oc(-c4cc(O)cc(O)c4)cc13)CC=C(C)CO2: no (0)

* * *

Recorded IC50 for the following compounds
Test system: RAW264.7
Protocol Details: Antiinflammatory activity against mouse RAW264.7 cells assessed as reduction of LPS-induced NO production
Type: functional, cell-based
Reported Property: IC50

• CC(C)=CCc1c(O)cc(-c2cc3ccc(O)cc3o2)cc1O [MORACIN C] = 8 µM
• CC(C)(O)C(O)Cc1cc2cc(-c3cc(O)cc(O)c3)oc2cc1O (centres undefined) = 14.3 µM
• CC1(C)Oc2cc3oc(-c4cc(O)cc(O)c4)cc3cc2CC1O (stereo not drawn) [(+/-)-MORACIN P] = 19.3 µM
• CC1(C)C=Cc2c(O)cc(-c3cc4ccc(O)cc4o3)cc2O1 [MORACIN D] = 18 µM

* * *

Protocol Details: Antioxidant activity assessed as DPPH radical scavenging activity measured as discoloration at 12.5 ug/ml
Type: physicochemical
Reported Property: Activity

* CC(C)=CCc1c(O)ccc2cc(-c3cc(O)cc(O)c3)oc12 | 55%
* CC(C)(O)C(O)Cc1cc2cc(-c3cc(O)cc(O)c3)oc2cc1O (centres undefined) | 34.6%
* COc1c(O)cc2oc(-c3cc(O)cc(O)c3)cc2c1CC=C(C)C | 61.58%
* CC1(O)C=Cc2c(c(O)cc3cc(-c4cc(O)cc(O)c4)oc23)OC1 (centres undefined) | 38.5%

* * *

Here the recorded Activity is given for each entry.
Protocol Details: Antioxidant activity assessed as DPPH radical scavenging activity measured as discoloration at 100 ug/ml
Type: physicochemical
Reported Property: Activity (%)

• COc1c(O)cc2oc(-c3cc(O)cc(O)c3)cc2c1CC=C(C)C = 83.04
• CC(C)(O)C(O)Cc1cc2cc(-c3cc(O)cc(O)c3)oc2cc1O (centres undefined) = 50
• CC1(O)C=Cc2c(c(O)cc3cc(-c4cc(O)cc(O)c4)oc23)OC1 (centres undefined) = 53.6
• CC(C)=CCc1c(O)ccc2cc(-c3cc(O)cc(O)c3)oc12 = 69.72

* * *

System: Citrobacter freundii
Protocol Details: Antimicrobial activity against Citrobacter freundii by liquid microdilution assay
Assay type: functional
Collected MIC values appear next to each entry.
Reported Property: MIC (µg/mL)

- CC1(O)C=Cc2c(c(O)cc3cc(-c4cc(O)cc(O)c4)oc23)OC1 (centres undefined): 312
- COc1c(O)cc2oc(-c3cc(O)cc(O)c3)cc2c1CC=C(C)C: 156
- CC(C)=CCc1c(O)cc(-c2cc3ccc(O)cc3o2)cc1O [MORACIN C]: 156
- Oc1cc(O)cc(-c2cc3ccc(O)cc3o2)c1 [MORACIN M]: 312

* * *

Test system: Pseudomonas aeruginosa
Protocol Details: Antimicrobial activity against Pseudomonas aeruginosa by liquid microdilution assay
Assay type: functional
Recorded measurements of MIC, one per entry
Reported Property: MIC (µg/mL)

- Oc1cc(O)cc(-c2cc3ccc(O)cc3o2)c1: 156
- CC1(O)C=Cc2c(c(O)cc3cc(-c4cc(O)cc(O)c4)oc23)OC1 (stereo not given): 625
- COc1c(O)cc2oc(-c3cc(O)cc(O)c3)cc2c1CC=C(C)C: 5
- CC(C)=CCc1c(O)cc(-c2cc3ccc(O)cc3o2)cc1O: 10
- CC(C)(O)C(O)Cc1cc2cc(-c3cc(O)cc(O)c3)oc2cc1O (stereo not given): 10

* * *

Protocol Details: Antioxidant activity assessed as DPPH radical scavenging activity measured as discoloration at 50 ug/ml
Format: physicochemical
Property: Activity; scope: individual molecules
Reported Property: Activity (%)

- COc1c(O)cc2oc(-c3cc(O)cc(O)c3)cc2c1CC=C(C)C: 71.72
- CC(C)(O)C(O)Cc1cc2cc(-c3cc(O)cc(O)c3)oc2cc1O (centres undefined): 48
- CC(C)=CCc1c(O)ccc2cc(-c3cc(O)cc(O)c3)oc12: 67.87
- CC1(O)C=Cc2c(c(O)cc3cc(-c4cc(O)cc(O)c4)oc23)OC1 (centres undefined): 49.98

* * *

Tested On: Enoyl-[acyl-carrier-protein] reductase [NADPH] FabI (Staphylococcus aureus, UniProt Q6GI75)
Sequence (Q6GI75 whole entry): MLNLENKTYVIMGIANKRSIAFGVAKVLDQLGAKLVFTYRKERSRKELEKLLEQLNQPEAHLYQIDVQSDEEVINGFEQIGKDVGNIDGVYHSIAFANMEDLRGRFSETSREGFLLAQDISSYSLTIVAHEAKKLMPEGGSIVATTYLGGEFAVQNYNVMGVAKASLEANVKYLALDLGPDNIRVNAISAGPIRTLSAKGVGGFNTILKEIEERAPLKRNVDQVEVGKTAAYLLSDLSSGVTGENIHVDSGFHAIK
Reported Property: IC50

* CC(C)=CCc1c(O)cc(-c2cc3ccc(O)cc3o2)cc1O [MORACIN C] | 83.8 µM
